B1: F1*; the commonest letter at each place (parent)
chain: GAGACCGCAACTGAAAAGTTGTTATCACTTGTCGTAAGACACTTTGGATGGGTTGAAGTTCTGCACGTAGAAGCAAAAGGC

- Variants of: B1
- ASSAY SUMMARY: fraction ligated after 30 min (ligated reads / total reads); higher = more ligase activity
- APPLIED CONDITIONS: with F1*sub RNA substrate (template-directed ligation), 42 °C
METRIC: fraction ligated

G38A T49G    0.785
G31C C40T    0.791
A41G T44G    0.809
G31A A37C    0.813
A37G A48G    0.795
T23G A37C    0.819
T30A T43G    0.8
